Test system: SF-295
Assay: NCI tumour cell line growth inhibition, 48 h
The source made the active and inactive calls. No stated cut-off is given here; in the data, active = GI50 up to about 1.1 µM and inactive = higher.
For each record, write down the corresponding GI50.

Q. What does the data say about its GI50? Entry: CNC(=S)NN=C1NCCCN1
A. > 100 µM (inactive)

Q. Please give the measured GI50 for this molecule: Cn1c2ccccc2n2c3ncccc3c(=O)c(C#N)c12
A. 7.69 µM (inactive)

Q. If you can, please state the reported GI50 value of NCS(=O)(=O)O .
A. > 100 µM (inactive)

----------
Tested on: SNB-19
Test: NCI tumour cell line growth inhibition, 48 h
The source made the active and inactive calls. No stated cut-off is given here; in the data, active = GI50 up to about 1.1 µM and inactive = higher.
Record form. Attribute: GI50. Fill in for each entry.

Q. Suppose we examine the compound COc1cccc(NC(=O)c2c(N)n[nH]c2SC)c1 ; what GI50 value has been reported?
A. > 100 µM (inactive)

Q. Fill in: GI50 of CN(C)CC1CCC/C(=C\c2ccc(OC(=O)/C=C/c3ccccc3)cc2)C1=O (stereo unspecified) is ___
A. 5.35 µM (inactive)

Q. Using the record for CN(C)C/C=C(/c1ccc(Br)cc1)c1cccnc1 , report its GI50.
A. > 100 µM (inactive)

Q. Any idea what its GI50 is? The compound is CCOc1ccc(NC(=O)CCc2nnc(SC)o2)cc1
A. > 100 µM (inactive)

Q. Look at this compound and give its reported GI50. COc1cc(CNc2nc3ccccc3n2Cc2ccccc2)cc(CN2CCOCC2)c1O
A. 61.8 µM (inactive)

Q. Return reported GI50; argument: CN(C)Nc1cc(=O)[nH]c(=O)[nH]1
A. > 100 µM (inactive)

Hello, the source for this data is ChEMBL document CHEMBL1201862, in case you need it.
